Experiment: yeast display, Sf9 membrane polyspecificity reagent, FACS + sequencing; frameworks hold sequencing errors
Measurement name: polyreactivity (PSR sort gate)

>>> val("QVQLVESGGGLVQAGGSLRLSCAASGSIFGYYDMGWYRQAPGKERELVAAISYRGSSTYYADSVKGRFTISRDNAKNTVYLQMNSLKPEDTAVYYCASRYYYSYPPQEDDYWGQGTQVTVSS")
"high polyreactivity"
>>> val("QVQLVESGGGLVQAGGSLRLSCAPSGIILAYYAMGWYRQAPGKERELVAAISRSGGITYYADSVKGRFTISRDNAKNTVYLQMNSLKPEDTAVYYCARYSSRPYDYWGQGTQVTVSS")
"high polyreactivity"

====

Assay: yeast display, Sf9 membrane polyspecificity reagent, FACS + sequencing; frameworks hold sequencing errors
Measurement name: polyreactivity (PSR sort gate)

>>> val("QVQLVESGGGLVQAGGSLRLSCAASGSTFKIYAMGWYRQAPGKERELVAAITRGGSTNYADSVKGRFTISRDNAKNTVYLQMNSLKPEDTAVYYCAASYWYRRYGTYTYDYWGQGTQVTVSS")
"high polyreactivity"
>>> val("QVQLVESGGGLVQAGGTLPLSCAASGYTISRNAKGWYRQAPGKARELDAAISRGGRTNYADSVKGRFTISRDNAKNSVYLHLNSLKPEDTAVYYCAANSTTGLRSPRGAGGHDYWGQGTQVTVSS")
"high polyreactivity"
>>> val("QVQLVESGGGLVQAGGSLRLSCAASGFTFFQYAKGWYRQAPGKERELVAAISARGGRTYYADSVKGRFTISRDNAKNTVYLQMNSLKPEDTAVYYCAKRTRTIQGHYDYWGQGTQVTVSS")
"high polyreactivity"
>>> val("QVQLVESGGGLVQAGGSLRLSCAASGGIFAYMGWYRQAPGKERELVASITSSGGSTYYADSVKGRFTISRDNAKNTVYLQMNSLKPEDTAVYYCAADPDFYKSVQYDYWGQGTQVTVSS")
"low polyreactivity"
>>> val("QVQLVESGGGLVQVGCSLRLICAASGRTFWWYAMGGYRQAPGKERELVAAISRGSTNYADSVKGRFTISRDNAKNTVYLQMNSLKPEDTAVYYCNAVSLYQSHDYDYWGQGSQVTVSS")
"low polyreactivity"

Req: Dear colleague, I am looking for the recorded polyreactivity (PSR sort gate) of the following sequence: `QVQLVESGGGLVQAGGSLRLSCAASGRIFYFYAMGWYRQAPGKEREFVATISYTGGSRYYSDSVKGRFTISRDIAKNTVYLQMNSLKPEDTAVYYCAVRGWYPGFRYDYWGQGTQVTVSS`
Resp: low polyreactivity

Req: Consider the sequence `QVQLVESGGGLVQAGGSLRLSCAASGRIFLYYTMGWYRQAPGKERELDAAITRSGGSTYYADSVKGRFTISRDNAKNTVYLQMNSLKPEDTAVYYCNRAYVRYVPMNYWGQGTQVTVSS` and give its measured polyreactivity (PSR sort gate).
Resp: high polyreactivity

Req: Recorded polyreactivity (PSR sort gate) for `QVQLVESGGGLVQAGGRLSLICAASGSIFPINAMGWYRQAPGKERELVADITSGGSTNYADSVKGRFTISRDNAKNTVYLQMNSLKPEDTAVYYCAADWRYWRWAFDYWGQGTQVTVSS` , please?
Resp: high polyreactivity

Req: Entry `QVQLVESGGGLVQAGGSLRLICAASGFTFPWNVMGWYRQAPGKERELVAAITYDGGGTYADSVKGRFTISRDNAKNTVYLQMNSLKPEDTAVYYCNADLIYGEEYDYWGQGTQVTVSS` has what polyreactivity (PSR sort gate)?
Resp: low polyreactivity

Req: Request the reported polyreactivity (PSR sort gate) associated with `QVQLVESRGGLVQAGGSLRLSCAASGFIFFQYAMGWYRQAPGTERELVAAISGSGVTTYYADSVKGRFTISRDNAKNTVYLQMNSLKPEDTAVYYCNAALRWKYDWGQGTQVTVSS`
Resp: low polyreactivity

====

Assay: yeast display, Sf9 membrane polyspecificity reagent, FACS + sequencing; frameworks hold sequencing errors
Measurement name: polyreactivity (PSR sort gate)

>>> val("QVQIVESGGGLVQAGGSLRISCAASGLIYSSYGMGWYRQAPGKERELVAAISSGGSTYYADSVKGRFSISRDNAKNTVYLQKKSLKPEDTAVYYCADGVLYPYWYSTYYPDCQYYYWGHGTQVTVSS")
"low polyreactivity"
>>> val("QVQLVESGGGLVQAGGSLRLSCAASGSIFNWYAMGWYRKAPGKERELVAAIRSGGNTKYADSVKGRFTISRDNAKNTVYLQMTSLKPEDTAVYYCAAGVYHRRLEYYYWGQGSQVTVSS")
"low polyreactivity"

====

Assay: yeast display, Sf9 membrane polyspecificity reagent, FACS + sequencing; frameworks hold sequencing errors
Measurement name: polyreactivity (PSR sort gate)

>>> val("QVQLVESGGGLVQAGGSLRLSCAASGRIFNLYAMGWYRQAPGKERELVAGIRWSTGSTYYADSVKGRFTISRDNAKNTVYLQMNSLKPEDTAVDYCAVRYYCSGRYYYTYYSWGQGTLVTVSS")
"high polyreactivity"
>>> val("QVQLVESGGGLVQAGGSLRLSCAASGSIFEPYVMGWYRQAPGKERELVAAIRQTGGSTYYADSVKGRFTISRDNAKNTVFLQMNSLKPEDTAVYYCNAKWYGWQRGTVKYDYWGQGTQVTVSS")
"low polyreactivity"
>>> val("QVQLVESGGGLVQAGGSLRLSCASSGSTFDYYMGWYRHAPGKERELVAAITYSGGSTYYADSVKGRFTISRDNAKNTVYLQMKSLKPEDTAVYYCAKDRSTFDDFYSNYYWGQGTQVTVSS")
"low polyreactivity"
>>> val("QVQLVESGGCLVQAGGSLRLSSAASGFIFSRYAMGWYRQATGKERELVASISWGGGSTSYADSVKGRFTISRDNAKYTVYLQMNSLKPEDTAVYYCNARVRSHRFNYWGQGTQVTVSS")
"high polyreactivity"
>>> val("QVQIVESGGGLVQAGGSLRLSCAASVRTQRYYDMGCYRQAPVKERELVAAISSGGSTYYGDSLKGRFSISRDNAKNTVYLEMNSLKPEDTEVYYCAKRVSNWVSGGGYYYWGQCTQVTVSS")
"high polyreactivity"
>>> val("QVQLVESGGGLVQAGGSLRLSCPASGIIFYGYTMGWYRQEPGKERELVAAISRSGGRTYYADSVKGRFTISRDNAKYTVYLQMNSLKPEDTAVYYCAATGSYSDRVEDEFWGQGTQVTVST")
"high polyreactivity"
>>> val("QVQLVESGGGLVQAGGSLRLSCAASGRTFRRYAMGWYRQAPGKERELVAAISRTGSTNNYADSVKGRFTISRDNAKNTVYLQMNSLIPEDTAVYYCKRQHNLGYGYDYWGQGTQVTVSS")
"high polyreactivity"
>>> val("QVQLVESGGGLVQAGGSLRLSCAASGIIFVSYDMGWYRQAPGKERELVAAINRGGRTYYADSVKGRFTISRDNAKNTDYLQMNSLKPEDTAVYYCAAQFHFRPFSWTYDYWGQGTQVTVSS")
"high polyreactivity"

Req: Requested read-out: polyreactivity (PSR sort gate). Entry: `QVHLVESGGGLVHAGGSLRLSCAASGRSFTFYDMGWYRQAPGKERELVAAITQDSGSSTYYADSVKGRFTISRDNAKNTVYLQMNSLKPEDTAVYYCNADYPGFSSQNDYWGQGTHVTVSS`
Resp: low polyreactivity

Req: Which value of polyreactivity (PSR sort gate) has been reported for `HGQLVDSGGGLVQAGGSLRLICAASGYTYYDYAMGRYREAPGKEMELVADISTSDGSTFYADSVKGRFTISRDNAKNTVYLQMNSLKPEDTAVYYCNTDGSLGLYDWFWPSNNDYWGQGTQVTVSS` in the records?
Resp: low polyreactivity

====

Test: yeast display, Sf9 membrane polyspecificity reagent, FACS + sequencing; frameworks hold sequencing errors
Measurement name: polyreactivity (PSR sort gate)

Example sequences with recorded polyreactivity (PSR sort gate):
>>> val("QVQLQESGGGPVLAGGSLRLSCEASGTIFVRLDMGWYRQAPGKEREFVATIGSGSSTYYADSVKGSFTISRDNVKNTVYLQMNSLKPEETAVYYCAVSAAEQSRHYYWDQGTQVTVSS")
"low polyreactivity"
>>> val("QVQLVESGGGLVQAGGSLRLICAASGGIFTRNDMGWYRQAPGKERELVAGISWRGGSTYYADSVKGRFTISRDNAKNTVYLQMNSLKPEDTAVYYCAALDTGGERDYWGQGTQVNVSS")
"low polyreactivity"
>>> val("QVQLVESGGGLVQAGGSLRLSCAASGSSFRVYAMGWYRQAPGKERELVAAISGSGGSTYYADSVKGRFTISRDNAKNTVYLQMNSLKPVDTAVYYCAARSWYTEYYWGQCTQVTVSS")
"high polyreactivity"
>>> val("QVQLVESGGGLVQAGGSLRLSCAASGRTFIINTMGWSRQATGTERELVAAISKNGATTNYADSVKGRFTISRDNAKNTVYLQMNSLKPEDTAVYYCNARYSGYLRLDYWGQGTQVTVSS")
"low polyreactivity"

Now look at this entry.
Req: Name the reported polyreactivity (PSR sort gate) value associated with the sequence `QVHLVESGGGLVQAGGSLRLSCAATGRTFAGYAMGWYRQAPGKERQLVAAITNGGSTKYADSVKGRFTISRDNAKNSVYLQMNSLKPEDTAVYYCKARKRFYSGNTLMYYWGQGTQVTVSS`
Resp: high polyreactivity
